- experiment.description: Changes over time of Z to E transition by 19F NMR
- Type: physicochemical
- measurement.conditions: 2 h, light 525 nm, 100 mM in DMSO
- Excerpt: We can observe that for electromagnetic radiation in the range of wavelengths 390 nm to 610 nm, transitions from E to Z of about 0–76% are obtained. The best results for all compounds are in visible wavelengths 505 nm or 525 nm (30.59–75.44%). […] Then we measured changes over time (transitions from Z to E, upon irradiation with 505 nm for (17a–17c) and (17e–17g), and 525 nm for (17i–17l) compounds (Figure 3, and see Section S4.3 in Supplementary Materials).
endpoint: Z isomer, changes over time (%)

[
  {
    "compound": "O=C(/C=C/c1ccc(Br)cc1)c1cccc(/N=N/c2c(F)cccc2F)c1 [Compound 17l]",
    "unit.of.measurement": "%",
    "Z isomer, changes over time": 72.7
  },
  {
    "compound": "COc1ccc(/C=C/C(=O)c2cccc(/N=N/c3c(F)cccc3F)c2)cc1OC [Compound 17i]",
    "unit.of.measurement": "%",
    "Z isomer, changes over time": 72.17
  },
  {
    "compound": "COc1cc(/C=C/C(=O)c2cccc(/N=N/c3c(F)cccc3F)c2)cc(OC)c1OC [Compound 17k]",
    "unit.of.measurement": "%",
    "Z isomer, changes over time": 72.48
  },
  {
    "compound": "COc1cc(/C=C/C(=O)c2cccc(/N=N/c3c(F)cccc3F)c2)cc(OC)c1 [Compound 17j]",
    "unit.of.measurement": "%",
    "Z isomer, changes over time": 71.89
  }
]
